Data provenance is patent US4977189A.

Tested on: Brain-Specific Receptors (3H-benzodiazepine binding)
Assay: Inhibition of the Binding of 3H-Benzodiazepine to Brain-Specific Receptors of Rats
Design: species or system rat (male albino, Wistar strain; whole cortex)
Conditions: 3H-diazepam (1.5 nM) or 3H-flunitrazepam (1.0 nM); rat cortex P2-fraction; 30 minutes in ice; test concentration not given
REPORTED METRIC: % Inhibition (%)

// worked examples, % Inhibition included
LINE NOTATION | TEST TARGET | REPORTED METRIC | OBSERVED RESULT
Cc1cccc(C(=O)N=C(NC(=O)c2ccccc2)Nc2ccc(C(N)=O)cc2)c1 | Brain-Specific Receptors (3H-benzodiazepine binding) | % Inhibition | 33
CNC(=O)c1ccc(NC(=NC(=O)c2cccc(C)c2)NC(=O)c2cccc(C)c2)cc1 | Brain-Specific Receptors (3H-benzodiazepine binding) | % Inhibition | 17
Cc1cccc(C(=O)N=C(NC(=O)c2cccc(C)c2)Nc2ccc(C(N)=O)cc2)c1 | Brain-Specific Receptors (3H-benzodiazepine binding) | % Inhibition | 25
COc1ccc(C(=O)N=C(NC(=O)c2ccc(OC)cc2)Nc2ccc(C(N)=O)cc2)cc1 | Brain-Specific Receptors (3H-benzodiazepine binding) | % Inhibition | 17

(P) Cc1cccc(C(=O)N=C(NC(=O)c2ccccc2)Nc2cccc(C(N)=O)c2)c1
(Q) Cc1cccc(C(=O)NC(=Nc2ccc(C(=O)N(C)C)cc2)NC(=O)c2cccc(C)c2)c1
(R) COc1ccc(C(=O)NC(=NC(=O)c2ccc(C)cc2)Nc2ccccc2C(N)=O)cc1
Parameters: sort_field (% Inhibition), sort_dir (desc). Response format: the labels, sorted as the prompt asks.
Q, P, R
